# Assay system: alpha2A receptor (Homo sapiens, UniProt P08913)
# Sequence (P08913 1-465): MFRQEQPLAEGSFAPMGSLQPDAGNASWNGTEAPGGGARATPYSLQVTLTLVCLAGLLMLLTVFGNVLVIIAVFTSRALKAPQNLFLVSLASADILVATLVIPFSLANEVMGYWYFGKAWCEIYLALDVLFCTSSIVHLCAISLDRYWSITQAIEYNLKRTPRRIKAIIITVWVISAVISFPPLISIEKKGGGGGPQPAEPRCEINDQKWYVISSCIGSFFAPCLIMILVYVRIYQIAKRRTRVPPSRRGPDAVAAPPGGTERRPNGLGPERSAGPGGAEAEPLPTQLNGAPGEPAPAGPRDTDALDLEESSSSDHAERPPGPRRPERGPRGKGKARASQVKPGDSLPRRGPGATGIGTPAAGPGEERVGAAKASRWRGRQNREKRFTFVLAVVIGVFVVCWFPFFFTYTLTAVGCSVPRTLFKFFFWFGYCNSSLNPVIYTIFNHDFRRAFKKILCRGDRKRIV
# Assay text: cell-based
Measurement name: EC50 (nM)

>>> df
                                   compound  measurement
0  CC1CC(NC2=NCCO2)c2ccccc21 (stereo not drawn)            7
1              Cc1cccc2c1CC[C@@H]2NC1=NCCS1          143
2  CC1CC(NC2=NCCS2)c2ccccc21 (stereo not drawn)          180

###

# Assay system: alpha2B receptor (Homo sapiens, UniProt P18089)
# Construct: expressed in transfected cells; host or cells: NIH-3T3 cells
# Sequence (P18089 whole entry): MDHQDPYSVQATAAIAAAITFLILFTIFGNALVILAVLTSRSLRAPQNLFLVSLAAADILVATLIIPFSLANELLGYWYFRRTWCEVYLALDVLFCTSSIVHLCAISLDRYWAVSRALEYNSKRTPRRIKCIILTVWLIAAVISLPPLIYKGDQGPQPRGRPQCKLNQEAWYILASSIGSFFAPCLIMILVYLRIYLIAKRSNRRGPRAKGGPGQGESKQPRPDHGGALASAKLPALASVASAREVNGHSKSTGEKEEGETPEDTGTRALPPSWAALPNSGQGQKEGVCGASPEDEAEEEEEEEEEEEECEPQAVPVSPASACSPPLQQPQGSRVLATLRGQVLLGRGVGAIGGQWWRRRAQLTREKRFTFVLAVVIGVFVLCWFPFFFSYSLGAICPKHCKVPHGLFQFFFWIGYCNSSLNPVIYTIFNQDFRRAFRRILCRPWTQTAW
# Assay text: Receptor Selection and Amplification Technology (RSAT) assay, alpha 2B
# Format: cell-based
# Assay setup: RSAT in transfected NIH-3T3 cells; nd = not determinable at concentrations less than 10 micromolar; read-out: Alpha 2B EC50
pEC50: −log10 of the molar value.
Measurement name: pEC50

>>> print(df.to_string())
                                   compound  measurement
0  CC1CC(NC2=NCCO2)c2ccccc21 (stereo not shown)         8.66
1              Cc1cccc2c1CC[C@@H]2NC1=NCCS1         8.47
2  Cc1ccc2c(c1)C(NC1=NCCN1)CC2 (stereo not shown)         6.33
3                c1ccc2c(c1)CC(NC1=NCCN1)C2         7.21

###

# Assay system: alpha2C receptor (Homo sapiens, UniProt P18825)
# Construct: expressed in transfected cells; host or cells: NIH-3T3 cells
# Sequence (P18825 1-462): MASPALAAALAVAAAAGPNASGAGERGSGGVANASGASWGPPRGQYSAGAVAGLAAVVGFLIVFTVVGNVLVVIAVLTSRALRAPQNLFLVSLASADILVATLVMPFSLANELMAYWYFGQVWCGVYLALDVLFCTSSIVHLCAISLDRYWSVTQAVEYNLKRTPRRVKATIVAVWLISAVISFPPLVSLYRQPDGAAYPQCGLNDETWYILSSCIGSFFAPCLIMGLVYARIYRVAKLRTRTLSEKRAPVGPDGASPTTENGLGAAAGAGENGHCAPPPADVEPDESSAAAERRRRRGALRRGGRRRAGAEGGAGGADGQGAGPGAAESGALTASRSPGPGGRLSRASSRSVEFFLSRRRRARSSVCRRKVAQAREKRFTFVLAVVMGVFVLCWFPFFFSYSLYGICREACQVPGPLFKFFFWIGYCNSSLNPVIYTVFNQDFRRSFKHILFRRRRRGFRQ
# Assay text: Receptor Selection and Amplification Technology (RSAT) assay, alpha 2C
# Assay type: cell-based
# Assay setup: RSAT; maximal effect relative to standard full agonist brimonidine (UK14304); read-out: Alpha 2C intrinsic activity (IA), in parentheses
# Description: Receptor Selection and Amplification Technology (RSAT) Assay The RSAT assay measures a receptor-mediated loss of contact inhibition that results in selective proliferation of receptor-containing cells in a mixed population of confluent cells. The increase in cell number is assessed with an appropriate transfected marker gene such as β-galactosidase, the activity of which can be easily measured in a 96-well format. Receptors that activate the G protein, Gq, elicit this response. […]
// thresholds for Emax classes: lowest (below 10%), middle (10% to below 50%), highest (50% or more)

In [3]: df
Out[3]:
                                    compound  discrete_label
 0              Cc1cccc2c1CC[C@@H]2NC1=NCCS1         highest
 1  c1ccc2c(c1)CCC2NC1=NCCN1 (stereo not drawn)          middle
 2  Cc1ccc2c(c1)C(NC1=NCCN1)CC2 (stereo not drawn)          lowest
 3               Cc1cccc2c1CC[C@H]2NC1=NCCN1          middle
 4  CC1CC(NC2=NCCS2)c2ccccc21 (stereo not drawn)          middle
 5  Brc1cccc2c1CCC2NC1=NCCN1 (stereo not drawn)          middle
 6             c1ccc2c(c1)CC[C@@H]2NC1=NCCN1          middle
 7  c1ccc2c(c1)CCC2NC1=NCCS1 (stereo not drawn)         highest
 8                c1ccc2c(c1)CC(NC1=NCCN1)C2          lowest
 9              Cc1cccc2c1CC[C@@H]2NC1=NCCN1         highest
10  Cc1cccc2c1CCC2NC1=NCCN1 (stereo not drawn)          middle

###

# Assay system: alpha2C receptor (Homo sapiens)
# Construct: expressed in transfected cells; host or cells: NIH-3T3 cells
# Assay text: Receptor Selection and Amplification Technology (RSAT) assay, alpha 2C
# Type: cell-based
# Assay setup: RSAT in transfected NIH-3T3 cells; nd = not determinable at concentrations less than 10 micromolar; read-out: Alpha 2C EC50
pEC50: −log10 of the molar value.
Measurement name: pEC50

                                   compound  measurement_name  measurement
0  CC1CC(NC2=NCCO2)c2ccccc21 (stereo not shown)             pEC50         7.70
1  c1ccc2c(c1)CCC2NC1=NCCN1 (stereo not shown)             pEC50         6.68
2  Cc1cccc2c1CCC2NC1=NCCN1 (stereo not shown)             pEC50         6.37
3              Cc1cccc2c1CC[C@@H]2NC1=NCCS1             pEC50         7.64

###

# Assay system: alpha2A receptor (Homo sapiens)
# Sequence (P08913 1-465): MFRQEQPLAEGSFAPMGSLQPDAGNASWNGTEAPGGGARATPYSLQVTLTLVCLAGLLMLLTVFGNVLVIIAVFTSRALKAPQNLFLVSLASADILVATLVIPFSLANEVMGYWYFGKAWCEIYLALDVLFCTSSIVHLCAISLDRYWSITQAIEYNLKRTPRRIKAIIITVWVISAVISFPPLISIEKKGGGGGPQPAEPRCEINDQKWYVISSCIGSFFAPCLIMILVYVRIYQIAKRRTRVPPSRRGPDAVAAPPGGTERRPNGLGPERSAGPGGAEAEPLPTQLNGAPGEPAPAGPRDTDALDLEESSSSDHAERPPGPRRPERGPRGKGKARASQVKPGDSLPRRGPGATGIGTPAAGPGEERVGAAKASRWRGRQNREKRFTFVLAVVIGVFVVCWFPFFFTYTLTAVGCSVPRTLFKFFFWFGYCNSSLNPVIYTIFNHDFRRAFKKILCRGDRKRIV
# Assay text: cell-based
# Assay setup: read-out: Alpha 2A intrinsic activity (IA), in parentheses
Measurement name: Emax (%)

In [3]: df
Out[3]:
                                    compound  measurement_name  scale_unit  measurement
 0  Cc1ccc2c(c1)C(NC1=NCCN1)CC2 (stereo not drawn)              Emax           %            7
 1               Cc1cccc2c1CC[C@H]2NC1=NCCN1              Emax           %           11
 2  CC1CC(NC2=NCCS2)c2ccccc21 (stereo not drawn)              Emax           %           25
 3  CC1CC(NC2=NCCO2)c2ccccc21 (stereo not drawn)              Emax           %           25
 4  Brc1cccc2c1CCC2NC1=NCCN1 (stereo not drawn)              Emax           %            7
 5                c1ccc2c(c1)CC(NC1=NCCN1)C2              Emax           %            5
 6  Cc1cccc2c1CCC2NC1=NCCN1 (stereo not drawn)              Emax           %           20
 7  c1ccc2c(c1)CCC2NC1=NCCN1 (stereo not drawn)              Emax           %            3
 8              Cc1cccc2c1CC[C@@H]2NC1=NCCN1              Emax           %           16
 9             c1ccc2c(c1)CC[C@@H]2NC1=NCCN1              Emax           %            4
10              Cc1cccc2c1CC[C@@H]2NC1=NCCS1              Emax           %           57
11  c1ccc2c(c1)CCC2NC1=NCCS1 (stereo not drawn)              Emax           %           14

All figures here come from patent US20110178143A1.
